target: human TLR7 (Homo sapiens, UniProt Q9NYK1); test: TLR7 inhibition reporter assay (HEK-Blue cells, secreted embryonic alkaline phosphatase reporter); conditions: HEK-Blue cells overexpressing human TLR7, stimulated with gardiquimod 7.5 μM; read-out: TLR 7 IC50
Sequence (Q9NYK1 27-1049): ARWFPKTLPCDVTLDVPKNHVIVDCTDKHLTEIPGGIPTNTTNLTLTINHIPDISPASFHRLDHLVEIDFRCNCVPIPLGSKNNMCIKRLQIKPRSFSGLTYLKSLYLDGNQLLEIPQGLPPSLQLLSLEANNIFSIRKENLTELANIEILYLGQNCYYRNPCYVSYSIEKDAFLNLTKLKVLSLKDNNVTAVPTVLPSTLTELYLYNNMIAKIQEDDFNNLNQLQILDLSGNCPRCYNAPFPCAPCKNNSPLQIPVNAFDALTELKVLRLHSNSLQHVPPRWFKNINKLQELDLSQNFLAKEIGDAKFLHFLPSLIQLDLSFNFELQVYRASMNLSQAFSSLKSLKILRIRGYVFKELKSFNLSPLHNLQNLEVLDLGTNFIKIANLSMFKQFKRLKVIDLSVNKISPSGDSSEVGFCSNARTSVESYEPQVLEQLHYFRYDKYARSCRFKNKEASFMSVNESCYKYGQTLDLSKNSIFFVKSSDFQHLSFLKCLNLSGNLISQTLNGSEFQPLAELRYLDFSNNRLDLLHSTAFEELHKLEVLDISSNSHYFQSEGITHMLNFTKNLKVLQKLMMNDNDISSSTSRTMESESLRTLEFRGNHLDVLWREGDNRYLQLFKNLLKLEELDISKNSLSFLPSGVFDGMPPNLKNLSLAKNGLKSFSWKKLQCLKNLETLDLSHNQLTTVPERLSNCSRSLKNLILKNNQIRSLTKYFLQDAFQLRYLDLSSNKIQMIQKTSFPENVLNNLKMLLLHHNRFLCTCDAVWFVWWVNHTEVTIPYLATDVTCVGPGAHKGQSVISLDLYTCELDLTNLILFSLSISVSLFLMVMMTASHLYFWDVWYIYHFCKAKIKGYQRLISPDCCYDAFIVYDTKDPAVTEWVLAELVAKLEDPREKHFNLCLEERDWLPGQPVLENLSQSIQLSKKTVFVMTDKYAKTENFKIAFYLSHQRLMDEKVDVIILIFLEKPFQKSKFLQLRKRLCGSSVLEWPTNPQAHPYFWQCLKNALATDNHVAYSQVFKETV
property_label: IC50 (µM)

Guide cases for IC50, answers given:
Cc1cc(-c2ccc(CN3CC4(CN(C)C4)C3)cc2)cc2c1nc(-c1ccc(S(C)(=O)=O)cc1)n2C = 1.8
Cc1cc(C2CCN(C3CCN(CC(C)C)CC3)CC2)cc2[nH]c(-c3ccc4c(c3)OCCO4)nc12 = 0.74
COc1cc(-c2nc3c(C)cc(C4CCN(C5CCN(C(C)C)CC5)CC4)cc3n2C)cn2ncnc12 = 0.6

(a) Cc1cc(-c2ccc(CN3CCC(N(C)C)CC3)cc2)cc2c1nc(-c1ccc(S(C)(=O)=O)cc1)n2C
(b) Cc1cc(-c2cc(F)cc(CN3CCC(N4CCCC4)CC3)c2)cc2c1nc(-c1ccc(S(C)(=O)=O)cc1)n2C
Exam item: Name the one with the greater IC50 value, either a or b as given. Answer by quoting the chosen item's label.
Marked response: a
(a: 1.2 µM, b: 0.3 µM)

(I) COc1ccc(-c2nc3c(C)cc(C4CCN(C5CCN(CC(C)C)CC5)CC4)cc3n2C)cc1OC [Example 15, tris(2,2,2-trifluoroacetate)]
(II) Cn1c(-c2ccc(S(C)(=O)=O)cc2)nc2cc(F)c(C3CCN(C4CC5CCC(C4)N5C4CCC4)CC3)cc21 (centres unmarked) [Example 232]
Exam item: Hi! Which is lower in terms of IC50, the first one I or the second one II ? Answer by quoting the chosen item's label.
Marked response: I

----------
target: human TLR8 (Homo sapiens, UniProt Q9NR97); assay: TLR8 inhibition reporter assay (HEK-Blue cells, secreted embryonic alkaline phosphatase reporter); details: HEK-Blue cells overexpressing human TLR8, stimulated with R848 15.9 μM; read-out: TLR 8 IC50
Sequence (Q9NR97 27-1041): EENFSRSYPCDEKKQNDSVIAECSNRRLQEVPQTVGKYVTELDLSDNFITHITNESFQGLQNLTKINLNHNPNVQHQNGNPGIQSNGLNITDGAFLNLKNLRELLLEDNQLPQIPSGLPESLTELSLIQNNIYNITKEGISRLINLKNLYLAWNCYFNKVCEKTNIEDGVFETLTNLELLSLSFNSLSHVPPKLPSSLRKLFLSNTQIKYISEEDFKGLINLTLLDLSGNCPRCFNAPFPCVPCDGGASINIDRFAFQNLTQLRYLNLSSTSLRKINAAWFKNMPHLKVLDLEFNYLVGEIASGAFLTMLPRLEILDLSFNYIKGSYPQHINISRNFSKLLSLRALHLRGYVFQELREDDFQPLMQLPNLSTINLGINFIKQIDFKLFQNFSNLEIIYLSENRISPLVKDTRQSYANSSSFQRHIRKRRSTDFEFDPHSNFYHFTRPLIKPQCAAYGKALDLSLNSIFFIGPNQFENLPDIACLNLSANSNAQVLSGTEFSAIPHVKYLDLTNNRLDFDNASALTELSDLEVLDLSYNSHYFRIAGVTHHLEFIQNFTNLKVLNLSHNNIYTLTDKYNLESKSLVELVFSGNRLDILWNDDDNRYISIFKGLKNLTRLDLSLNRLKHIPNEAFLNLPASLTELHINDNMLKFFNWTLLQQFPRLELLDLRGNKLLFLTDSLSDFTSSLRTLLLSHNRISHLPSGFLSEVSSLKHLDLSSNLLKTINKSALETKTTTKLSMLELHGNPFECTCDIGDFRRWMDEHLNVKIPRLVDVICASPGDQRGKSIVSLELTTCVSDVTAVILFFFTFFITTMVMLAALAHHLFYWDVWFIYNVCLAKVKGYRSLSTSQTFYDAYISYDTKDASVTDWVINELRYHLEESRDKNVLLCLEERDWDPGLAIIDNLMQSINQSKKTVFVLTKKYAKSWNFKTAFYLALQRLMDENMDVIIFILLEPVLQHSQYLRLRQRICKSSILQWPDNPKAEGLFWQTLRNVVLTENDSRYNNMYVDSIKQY
property_label: IC50 (µM)

Guide cases for IC50, answers given:
Cc1cc(-c2ccc(CN3CC4(C3)CN(C(C)C)C4)cc2)cc2c1nc(-c1ccc(S(C)(=O)=O)cc1)n2C [Example 399] = 2.7
Cn1c(-c2ccc(S(C)(=O)=O)cc2)nc2ccc(C3CCN(C4CCN(C5CCOCC5)CC4)CC3)c(F)c21 [Example 264] = 20.7

(a) COCCN1C2CCC1CC(N1CCC(c3cc(F)c4nc(-c5ccc(S(C)(=O)=O)cc5)n(C)c4c3)CC1)C2 (single isomer, unassigned) [Example 291]
(b) Cc1cc(-c2ccc(CN3C[C@H]4CN(C)C[C@H]4C3)c(F)c2)cc2c1nc(-c1ccc(S(C)(=O)=O)cc1)n2C [Example 388]
Exam item: Hi! Which is lower in terms of IC50, the first one a or the second one b ? Answer by quoting the chosen item's label.
Marked response: b

----------
target: human TLR9 (Homo sapiens); construct: host or cells: HEK-Blue cells (HEK293-derived reporter line); experiment: TLR9 inhibition reporter assay (HEK-Blue cells, secreted embryonic alkaline phosphatase reporter); format: cell-based; conditions: HEK-Blue cells overexpressing human TLR9, stimulated with ODN2006 5 nM; read-out: TLR 9 IC50
Sequence (Q9NR96 26-1032): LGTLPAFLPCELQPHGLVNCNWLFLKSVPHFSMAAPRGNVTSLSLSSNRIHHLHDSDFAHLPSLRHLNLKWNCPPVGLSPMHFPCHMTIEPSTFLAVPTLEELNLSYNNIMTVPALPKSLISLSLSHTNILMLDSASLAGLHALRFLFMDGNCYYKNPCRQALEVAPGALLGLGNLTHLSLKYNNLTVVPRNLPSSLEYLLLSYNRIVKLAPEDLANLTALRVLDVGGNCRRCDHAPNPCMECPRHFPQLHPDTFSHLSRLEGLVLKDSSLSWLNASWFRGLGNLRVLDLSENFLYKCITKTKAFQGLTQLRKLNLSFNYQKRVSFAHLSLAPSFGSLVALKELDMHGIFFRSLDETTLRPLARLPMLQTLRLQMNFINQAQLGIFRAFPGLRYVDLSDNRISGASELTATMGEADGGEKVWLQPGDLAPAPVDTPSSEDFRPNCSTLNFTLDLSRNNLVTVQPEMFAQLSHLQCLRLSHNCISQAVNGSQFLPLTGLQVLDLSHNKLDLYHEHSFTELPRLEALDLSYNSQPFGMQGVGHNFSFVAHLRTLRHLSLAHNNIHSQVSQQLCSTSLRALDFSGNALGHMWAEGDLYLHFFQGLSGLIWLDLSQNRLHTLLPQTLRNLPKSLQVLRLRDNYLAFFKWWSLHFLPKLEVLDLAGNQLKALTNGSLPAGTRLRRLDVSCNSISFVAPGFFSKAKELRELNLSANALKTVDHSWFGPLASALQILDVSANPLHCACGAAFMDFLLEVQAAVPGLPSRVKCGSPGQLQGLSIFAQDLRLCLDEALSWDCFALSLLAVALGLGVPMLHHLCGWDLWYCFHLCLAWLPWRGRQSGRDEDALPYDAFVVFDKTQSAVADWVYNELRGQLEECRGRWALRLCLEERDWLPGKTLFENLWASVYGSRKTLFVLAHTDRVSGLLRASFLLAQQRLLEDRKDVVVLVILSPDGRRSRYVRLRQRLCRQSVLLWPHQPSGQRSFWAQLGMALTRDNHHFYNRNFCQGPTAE
property_label: IC50 (nM)

Cc1cc(-c2ccc(N3CCN(C4CCOCC4)CC3)cc2)cc2c1nc(-c1ccc(S(C)(=O)=O)cc1)n2C = 680
Cc1cc(C2CCN(C3CC4CCC(C3)N4CC3CC3)CC2)cc2c1nc(-c1ccc(S(C)(=O)=O)c(F)c1)n2C (stereo not drawn) [Example 341] = 37

(a) Cc1cc(C2CCN(C3CCCN(C4COC4)CC3)CC2)cc2c1nc(-c1ccc(S(C)(=O)=O)cc1)n2C (stereo not drawn) [Example 305]
(b) Cc1cc(C2CCN(C3CCCN(CC4CCC4)CC3)CC2)cc2c1nc(-c1ccc(S(C)(=O)=O)cc1)n2C (stereo not drawn)
(c) Cc1cc(-c2ccc(OC3CCN(CC(C)C)CC3)cc2)cc2c1nc(-c1ccc(S(C)(=O)=O)cc1)n2C
(d) Cn1c(-c2ccc(S(C)(=O)=O)cc2)nc2c(F)cc(C3CCN(C4CC5CCC(C4)N5C4CCOCC4)CC3)cc21 (single isomer, unassigned) [Example 289]
Exam item: Order the 4 molecules from highest to lowest IC50. Output spec: a listing of the labels in the requested order.
Marked response: c, a, b, d

(I) Cn1c(-c2ccc(S(C)(=O)=O)cc2)nc2c(F)c(C3CCN(C4CC5CCC(C4)N5CC4COC4)CC3)ccc21 (single isomer, unassigned) [Example 193]
(II) CN(C)C1CCN(Cc2ccc(-c3ccc4nc(-c5ccc(F)cc5)n(C)c4c3)cc2)CC1
Exam item: Name the one with the greater IC50 value, either I or II as given. Answer by quoting the chosen item's label.
Marked response: II
(II: 349 nM, I: 82 nM)

Every entry's value here was drawn from patent US12492188B2.
